Data credit: PubChem BioAssay (NCI)

tested on: MDA-MB-468 breast; test: NCI-60 one-dose screen, 48 h; details: 10 µM unless noted
About 83,000 compounds went through this panel and 20% of them were active in at least one assay; those are over-represented in the sample as a whole. The source made the active and inactive calls. The calls were made as follows: active = growth percent below 10; inactive = the rest.
Bench note: report the call from TRUE = active, FALSE = inactive

Assay outcome for "CC(=O)Oc1ccc(CCN2C(=O)CSC2=S)cc1" : what was it?
TRUE

Assay outcome for COc1cc(C2C(C#N)=C(c3c[nH]c4ccccc34)Nc3nc(N)[nH]c(=O)c32)cc(OC)c1OC (stereo not drawn) : what was it?
FALSE

Assay outcome for "O=[N+]([O-])c1ccc(-n2[nH]nnc2=S)cc1" : what was it?
FALSE

Assay outcome for "O=C(CCc1ccccc1)N1CCN(C(=O)CCc2ccccc2)CC1" : what was it?
FALSE

Assay outcome for "O=C1NC(=O)C(CC(=O)n2c(-c3ccccc3)nc3ccccc32)C(=O)N1" : what was it?
FALSE

Assay outcome for CC1OC(O[C@H]2/C=C/C=C/C=C/C=C/C=C/C=C/C=C/[C@H](C)[C@@H](O)[C@@H](C)[C@H](C)OC(=O)CC(O)CC(O)CCC(O)C(O)CC(O)C[C@]3(O)C[C@H](O)C(C(=O)O)C(C2)O3)C(O)[C@H](N)C1O (stereo partly drawn) : what was it?
FALSE

Assay outcome for "COc1ccc(-c2nn(-c3ccc(NC(=O)Nc4cc(C(F)(F)F)cc(C(F)(F)F)c4)cc3)cc2-c2ccncc2)cc1Cl" : what was it?
TRUE

Assay outcome for "CCN(CC)CCC(=O)Nc1ccc(Cn2nnc3c2C(=O)c2nnn(Cc4ccc(NC(=O)CCN(CC)CC)cc4)c2C3=O)cc1" : what was it?
TRUE

Assay outcome for COc1cc(C2C(C#N)=C(N)Oc3cc4c(cc32)OCO4)cc2c1OCO2 (stereo not drawn) : what was it?
TRUE

Assay outcome for CCCCCCCCCCCCCCCCCCNC(=O)[C@H]1CSC(c2ccc(OC)c(F)c2)N1 (stereo partly drawn) : what was it?
FALSE

Assay outcome for "CN(C)c1cccc2c(S(=O)(=O)Nc3cccc(-c4csc(NC(=O)CCCCCN5CCN(CCO)CC5)n4)c3)cccc12" : what was it?
FALSE
